Would you kindly list IC50 for each of these compounds?
# testTarget: Signal transducer and activator of transcription 3 (Homo sapiens) (UniProt P40763)
# protocolNotes: reduction of STAT3-responsive reporter signal – cell-based, luminescence, dose response, counter-screen for STAT1 inhibitor project, late-stage follow-up (AID 2771)
# conditions: STAT3-responsive luciferase reporter cells
Activity calls are given as the source filed them. The rule behind the calls is not given here.

Please look at the items below and tell me IC50 for each one, in order.
1. Cc1ccc2oc(=O)cc(CSc3nc(-c4ccccc4)c4ccccc4n3)c2c1
2. CNC(=O)c1nn(-c2ccc(F)cc2)c(=O)c2ccccc12
3. CN(C)Cc1nc2ccccc2c(=O)n1Cc1nc(C(C)(C)C)cs1

Response:
1. > 55.7 µM (inactive)
2. > 55.7 µM (inactive)
3. > 55.7 µM (inactive)

Fill in IC50 for each of the 8 compounds listed.
1. Cc1cc2oc(=O)cc(CSc3nc4ccccc4c(=O)[nH]3)c2cc1Cl
2. CN1CCN(Cc2nc3ccccc3c(=O)n2Cc2nc(-c3cccc([N+](=O)[O-])c3)cs2)CC1
3. O=C(Nc1ccc(F)cc1)C(c1ccccc1)N1CCN(C(=O)c2ccccc2)CC1 (stereo not given)
4. CCOC(=O)N1CCN(C(=O)c2ccc(-n3c(=S)[nH]c4ccccc4c3=O)cc2)CC1
5. COc1cccc(-c2csc(Cn3c(CN4CCOCC4)nc4ccccc4c3=O)n2)c1
6. CN1CCN(C(=O)c2ccc(-n3c(=S)[nH]c4ccccc4c3=O)cc2)CC1
7. O=C(c1ccc(-n2c(=S)[nH]c3ccccc3c2=O)cc1)N1CCN(C(=O)c2ccco2)CC1
8. O=c1cc(CSc2nc3ccccc3c(=O)[nH]2)c2ccc(O)cc2o1

Response:
1. > 55.7 µM (inactive)
2. > 55.7 µM (inactive)
3. > 55.7 µM (inactive)
4. > 55.7 µM (inactive)
5. > 55.7 µM (inactive)
6. > 55.7 µM (inactive)
7. > 55.7 µM (inactive)
8. > 55.7 µM (inactive)

Report IC50 for every entry below.
1. N#Cc1ccc(S(=O)(=O)N2CCN(C(C(=O)Nc3ccc(F)cc3)c3ccccc3)CC2)cc1 (stereo not given)
2. CCOc1ccc(-c2csc(Cn3c(CN4CCN(C)CC4)nc4ccccc4c3=O)n2)cc1
3. Cc1ccc(NC(=O)C(c2ccccc2)N2CCN(S(=O)(=O)c3ccccc3)CC2)cc1 (stereo not given)
4. CCC(C(=O)Nc1ccccc1)N1CCN(S(=O)(=O)c2ccc3c(c2)CCC3)CC1 (stereo not given)
5. Cc1ccc(C)c(S(=O)(=O)N2CCN(C(C(=O)Nc3ccc(F)cc3)c3ccccc3)CC2)c1 (stereo not given)
6. Cc1ccc(C)c(NC(=O)C(c2ccccc2)N2CCN(S(=O)(=O)c3ccccc3C#N)CC2)c1 (stereo not given)

Response:
["> 55.7 µM (inactive)", "> 55.7 µM (inactive)", "> 55.7 µM (inactive)", "> 55.7 µM (inactive)", "> 55.7 µM (inactive)", "> 55.7 µM (inactive)"]

Quick one: give me IC50 for each item below, same order please.
1. COc1cc2c(cc1OC)C(=O)N(Cc1nnc(-c3ccc(Cl)cc3)o1)C(=CN1CCOCC1)N2
2. O=C(c1ccc(-n2c(=S)[nH]c3ccccc3c2=O)cc1)N1CCN(c2ccc(F)cc2)CC1

Response:
1: > 55.7 µM (inactive); 2: > 55.7 µM (inactive)
